Entries and their measured Qmax follow.
molecular target: T1, Human Alpha-1 antitrypsin (AAT) (human, UniProt P01009 25-418); experiment: static adsorption isotherm, pure AAT in PBS pH 7.4, Langmuir fit
T1 construct: Pure AAT in buffer, as used in the isotherm and breakthrough studies; also called α-1 antitrypsin; human AAT
T1 sequence (P01009 25-418 limits assumed): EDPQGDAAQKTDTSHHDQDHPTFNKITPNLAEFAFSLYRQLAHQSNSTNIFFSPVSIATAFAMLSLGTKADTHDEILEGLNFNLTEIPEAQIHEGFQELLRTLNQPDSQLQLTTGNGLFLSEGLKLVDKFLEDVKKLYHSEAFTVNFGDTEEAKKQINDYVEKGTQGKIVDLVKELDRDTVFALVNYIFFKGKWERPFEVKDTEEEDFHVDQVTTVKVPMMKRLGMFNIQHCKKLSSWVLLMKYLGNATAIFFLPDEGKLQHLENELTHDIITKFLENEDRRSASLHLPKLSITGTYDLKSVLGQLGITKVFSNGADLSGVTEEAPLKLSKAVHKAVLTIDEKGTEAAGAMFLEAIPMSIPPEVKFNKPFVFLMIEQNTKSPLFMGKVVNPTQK
No end group written: not given here.
Give just the numeric value; mgAAT per mLR need not be written.

> print(dat)
                                     binder  unit.annotation  numeric.value
1  AAHFHKG-{Toyopearl AF‑Amino‑650M resin} (not fully specified; printed as AAHFHKG-Toyopearl) [AAHFHKG-Toyopearl]    mgAAT per mLR            8.7

Lab note: next binder to report on.
**Query** Quick check: Qmax of WHAKKSHFG-{Toyopearl AF‑Amino‑650M resin} (not fully specified; printed as WHAKKSHFG-Toyopearl) [WHAKKSHFG-Toyopearl] ?
**Result** 16.3
